Each recorded value in this set is attributed to paper PMC5540273.

System: ASK2
Construct: gene MAP3K6
settings: concentration: 1 μM, replicates: in singlicate; n = 1
measured attribute: %Inh (%)
# unit: % | format: bare number

Guide cases for %Inh, answers given:
| compound | study target | %Inh [%] |
| --- | --- | --- |
| Cc1cccc(-c2nc(Nc3cccc(C(N)=O)c3)c3ccccc3n2)n1 | ASK2 | 0 |
| Cc1ccc(C(=O)Nc2ccc(Nc3ccnc4cc(-c5ccccn5)ccc34)cc2O)cc1.Cl | ASK2 | 0 |
| Cn1ccc2ncnc(Oc3ccc(Nc4nc5ccccc5[nH]4)cc3)c21 | ASK2 | 0 |
| COc1cccc(NC(=O)NC2CCN(c3ccnc(Nc4ccc(F)cc4)n3)C2)c1 (stereo not drawn) | ASK2 | 4 |

input: Checklist item: %Inh tested on ASK2, entry Cc1cc(NCC(c2ccccc2)c2ccccc2)nc(NCc2ccc(C(F)(F)F)cc2)n1 , value?;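 note: KINOMEscan kinase panel screen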
output: 0

input: Do the same for COc1cc2ncn(-c3cc(OCC4CCCO4)c(C(N)=O)s3)c2cc1OC (stereo not drawn) please
output: 0

input: // query: CCn1c(-c2ccccn2)nc2cnccc21
output: 0

input: Try the compound O=C(Nc1n[nH]c2cc(-c3cccc(F)c3F)ccc12)C1CC1
output: 5

input: Check Cn1ccc2ncnc(Oc3cccc(C(=O)Nc4ccccc4)c3)c21 too.
output: 0
